Source listed as patent US9856216B2.

Subject Of Test: TNIK (Homo sapiens)
Construct: purchased Promega V4158
Sequence (Q9UKE5 1-367 limits assumed): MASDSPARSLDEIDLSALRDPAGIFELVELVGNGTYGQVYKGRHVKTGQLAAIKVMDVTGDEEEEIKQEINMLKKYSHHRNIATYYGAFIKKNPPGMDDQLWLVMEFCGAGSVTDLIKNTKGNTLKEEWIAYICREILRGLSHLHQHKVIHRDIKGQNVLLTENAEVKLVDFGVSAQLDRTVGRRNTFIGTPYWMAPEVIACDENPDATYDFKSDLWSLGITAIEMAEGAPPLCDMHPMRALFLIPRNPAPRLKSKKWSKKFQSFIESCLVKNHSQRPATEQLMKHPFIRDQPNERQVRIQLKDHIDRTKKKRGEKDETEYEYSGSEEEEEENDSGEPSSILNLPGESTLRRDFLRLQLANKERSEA
Experimental Protocol: ADP-Glo Kinase Assay, inhibition activity on TNIK
Type: biochemical
Assay Conditions: read-out: TNIK
Reported Metric: IC50

Provide measured IC50 value, entry: COc1ccc(C(=O)Nc2ccc(-c3ccc(C(C)=O)cc3)c3c2C(=O)NC3)cc1 [Example 204]
> 20 µM

Provide measured IC50 value, entry: Cn1ncnc1-c1ccc(NC(=O)c2ccccc2)c2c1CNC2=O [Example 59]
> 20 µM

Provide measured IC50 value, entry: COc1ccc(-c2ccc(NC(=O)c3ccccc3)c3c2CNC3=O)cc1 [Example 118]
> 20 µM

Others:
Provide measured IC50 value, entry: O=C(Nc1ccc(Nc2ccccc2)c2c1C(=O)NC2)c1ccc(NCCCN2CCCCC2)cc1 [Example 479]
0.11 µM

Provide measured IC50 value, entry: O=C(Nc1ccc(-c2ccsc2)c2c1C(=O)NC2)c1ccccc1 [Example 146]
> 20 µM
